Catalogue of compounds with associated TGI
Tested on: ACHN renal
testName: NCI tumour cell line growth inhibition, 48 h
endpoint: TGI

{"columns": ["compound", "endpointValue"],
 "data": [
  ["O=C(O)C(F)(F)C(F)(F)C(F)(F)C(F)(F)C(=O)O", "> 100 µM"],
  ["CC(=O)Nc1ccc(N2C(=O)CS(=O)(=O)C2c2cccc(Oc3ccccc3)c2)cc1 (stereo unspecified)", "36.3 µM"],
  ["O=C1C(=Cc2ccco2)C(=O)C2CCCCC12 (stereo unspecified)", "> 100 µM"],
  ["CCOC(=O)CN=C1Nc2ccccc2C(=O)N2CSCC12 (stereo unspecified)", "> 100 µM"],
  ["Fc1ccc(C2NC(=S)NC3=C2CCOc2c3ccc3ccccc23)cc1 (stereo unspecified)", "> 100 µM"],
  ["CC(C)=CC(C)C(C(O)CCC1(c2ccoc2)OCCO1)S(=O)(=O)c1ccccc1 (stereo unspecified)", "> 100 µM"],
  ["CC(C)(C)OC(=O)NC1CCCC1C(O)(C1=CCCC1)C1=CCCC1 (stereo unspecified)", "> 100 µM"],
  ["O=C1c2n[nH]nc2C(=O)c2n[nH]nc21", "> 100 µM"],
  ["CSc1nc2c(c(=O)n1C)N=C(c1ccc(Cl)cc1)CC(c1ccccc1)N2 (stereo unspecified)", "44.6 µM"],
  ["S=c1[nH]c(=S)c2sc(=S)n(-c3ccccc3)c2[nH]1", "> 100 µM"],
  ["O=[N+]([O-])c1ccc(Sc2c3ccccc3nc3ccccc23)cc1", "> 100 µM"]
]}

====

Catalogue of compounds with associated GI50
Test system: CCRF-CEM leukemia
testName: NCI tumour cell line growth inhibition, 48 h
endpoint: GI50

{"columns": ["compound", "endpointValue"],
 "data": [
  ["CCN1C(=O)N(CC)C2C1NN=c1s/c(=C3\\C(=O)N(CC(C)C)c4ccccc43)c(=O)n12 (configuration not stated)", "0.464 µM"],
  ["COc1ccc2c(c1)nc(N)c1c3cc(OC)c(OC)cc3cn21", "0.0101 µM"],
  ["N=C1c2nc3n(c2C(=O)c2nc4n(c21)CCCC4)CCCC3", "20.5 µM"],
  ["CC1(C)OC[C@@H]([C@@]2(CO[Si](C)(C)C(C)(C)C)CC=CC(=O)O2)O1", "26.2 µM"],
  ["CCOC(=O)Cc1csc(/N=C2\\NC(=O)/C(=C3\\C(=O)N(C)c4ccccc43)S2)n1", "26.1 µM"],
  ["C/C=C(\\C)C(=O)N[C@H]1[C@@H](OC(C)=O)C[C@]2(C)C3CC[C@@]4(C)C(CC[C@@H]4C(C)N(C)C)C3CCC2[C@H]1O (some centres not stated)", "3.57 µM"],
  ["CCCc1ccc(S(=O)(=O)N[C@H]2CC[C@H]3[C@@H]4CCc5cc(O)ccc5[C@H]4CC[C@]23C)cc1", "2.72 µM"],
  ["Nc1ccc(C(=O)c2ccc(N)c(Br)c2)cc1Br", "0.483 µM"],
  ["CC(=O)Nc1nc(SCc2ccccc2)c2ncn(C(C)=O)c2n1", "> 100 µM"],
  ["CCOC(=O)CCCn1c(SC)nc2cc(-c3ccco3)[nH]c2c1=O", "> 100 µM"],
  ["CC(=O)OCC1OC(OC2CC3C(C)(C)C(OC(C)=O)CC[C@]3(C)C3CCC45CC4(CC[C@H]5C(C)CC(O)[C@@H](O)C(C)(C)O)[C@]23C)C(O)C(O)C1O (some centres not stated)", "4.07 µM"],
  ["O=C1CCCCCCCC/C=C/CCC(c2ccco2)O1 (configuration not stated)", "27 µM"],
  ["Cc1ccccc1CN1CC2=C(CCN(Cc3ccccc3)C2=O)N2CCN=C12", "0.7 µM"],
  ["CCCCCNC(=O)[C@@H]1CCCN2C(=O)CC[C@H](NC(=O)[C@H](Cc3ccc(OP(=O)(O)O)cc3)NC(C)=O)C(=O)N12", "> 25 µM"],
  ["CC(C)(C)C(=O)Nc1ccccc1I(=O)=O", "> 100 µM"],
  ["Cn1ccc2c(NCCN)c3c(c(NCCN)c21)C(=O)c1ccccc1C3=O", "0.371 µM"],
  ["O=C(Nc1ccc(-n2cc(-c3ccncc3)c(-c3ccc(O)c(Cl)c3)n2)cc1)c1cc(Cl)cc(Cl)c1", "1.45 µM"]
]}

====

Tested on: PC-3 prostate
testName: NCI tumour cell line growth inhibition, 48 h; in the data active = GI50 below about 0.43 µM; inactive = the rest
Outcome codes: active, inactive

{"columns": ["compound", "category"],
 "data": [
  ["CC(C)(C)C(=O)Nc1ccccc1I(=O)=O", "inactive"],
  ["COC(=O)NC/C=C\\c1nc(CC/C=C\\C(=O)OC2CC3CC(=O)O[C@H](/C=C/CC(C)C)C[C@H]4CCC(C)C(C[C@H](OC)CC(C2)O3)O4)co1 (stereo partly specified)", "active"],
  ["C/C=C(\\C)C(=O)N[C@H]1[C@@H](OC(C)=O)C[C@]2(C)C3CC[C@@]4(C)C(CC[C@@H]4C(C)N(C)C)C3CCC2[C@H]1O (stereo partly specified)", "inactive"],
  ["O=C(c1cc(F)c(Cl)cc1Cl)N1N=C(c2ccccc2)CC1(O)c1ccccc1 (stereo unspecified)", "inactive"],
  ["CCOC(=O)Cc1csc(/N=C2\\NC(=O)/C(=C3\\C(=O)N(C)c4ccccc43)S2)n1", "inactive"],
  ["N#CC1=C(N)OC2=C(COc3ccc(F)cc32)C1c1ccc(Cl)cc1 (stereo unspecified)", "inactive"],
  ["O=C1/C(=C/c2ccc(O)c([N+](=O)[O-])c2)CCC/C1=C\\c1ccc(O)c([N+](=O)[O-])c1", "inactive"],
  ["O=[N+]([O-])c1ccc(-c2nc(N(CCO)CCO)c3ccccc3n2)o1", "active"],
  ["O=C(Nc1ccc(-n2cc(-c3ccncc3)c(-c3ccc(O)c(Cl)c3)n2)cc1)c1cc(Cl)cc(Cl)c1", "inactive"],
  ["COc1ccc2nc(-c3ccccc3)cc(Nc3ccc(C(C)=O)cc3)c2c1", "inactive"],
  ["N#CC1=C(N)NC(=S)NC12Nc1ccccc1O2 (stereo unspecified)", "inactive"],
  ["COc1ccc(C2=NN(C(=O)COc3ccc(Cl)cc3)C(O)(c3cc(F)c(Cl)cc3Cl)C2)cc1OC (stereo unspecified)", "inactive"],
  ["CC(=O)Nc1nc(SCc2ccccc2)c2ncn(C(C)=O)c2n1", "inactive"],
  ["Cc1cc(C)c(O)c(CNCCCCCCNCc2cc(C)cc(C)c2O)c1", "inactive"],
  ["C=C1C(=O)O[C@@H]2C1C[C@@H](O)/C(C)=C/C/C=C(\\C)CCC[C@H](C)[C@H]2OC(C)=O (stereo partly specified)", "inactive"],
  ["COc1ccc(CNc2nc3cc(N)cc(N)c3nc2-c2ccccc2)cc1OC", "inactive"]
]}

====

System: A549 NSCLC
testName: NCI tumour cell line growth inhibition, 48 h
Catalogue of compounds with associated TGI
endpoint: TGI

{"columns": ["compound", "testTarget", "endpointValue"],
 "data": [
  ["O=C1C=C(N2CCCC2)C(=O)c2c(O)ccc(O)c21", "A549 NSCLC", "> 10 µM"],
  ["COc1c(C)c2c(c(O)c1C/C=C(\\C)CCC(=O)OCCN1CCOCC1)C(=O)OC2", "A549 NSCLC", "> 100 µM"],
  ["O=C(c1cc(F)c(Cl)cc1Cl)N1N=C(c2ccccc2)CC1(O)c1ccccc1 (stereo unspecified)", "A549 NSCLC", "> 100 µM"],
  ["S=c1nc(Oc2ccc(Cl)c(Cl)c2)[nH]c(=S)[nH]1", "A549 NSCLC", "61.4 µM"],
  ["O=c1[nH]c2nccnc2c2c([N+](=O)[O-])cccc12", "A549 NSCLC", "> 100 µM"],
  ["c1ccc2c(c1)nc1n2CCNC1", "A549 NSCLC", "> 100 µM"],
  ["Cc1c(C#N)c2nnn(-c3ccc([N+](=O)[O-])cc3)c(=O)n2c1-c1ccccc1", "A549 NSCLC", "> 100 µM"],
  ["COc1ccc2nc(-c3ccccc3)cc(Nc3ccc(C(C)=O)cc3)c2c1", "A549 NSCLC", "60.3 µM"],
  ["COc1ccc(OC)c(C(=O)/C=C/c2cc(O)c(O)cc2F)c1", "A549 NSCLC", "> 82.7 µM"],
  ["COC(=O)c1c(O)ccc2c1c1c(n2Cc2ccc(OC)cc2)C(=O)c2ccccc2C1=O", "A549 NSCLC", "21.6 µM"],
  ["COc1ccc(CNc2nc3cc(N)cc(N)c3nc2-c2ccccc2)cc1OC", "A549 NSCLC", "> 70.6 µM"]
]}

====

System: ACHN renal
testName: NCI tumour cell line growth inhibition, 48 h

{"columns": ["molecule", "testTarget", "unitInfo", "valueComparator", "TGI"],
 "data": [
  ["O=c1c2ncn(C3CCCCO3)c2n(-c2ccccc2)c(=S)n1-c1ccccc1 (stereo unspecified)", "ACHN renal", "µM", ">", 100],
  ["N#CC1=C(N)N=C(N2CCCCC2)C(C#N)C12Nc1ccccc1S2 (stereo unspecified)", "ACHN renal", "µM", "=", 76.4],
  ["COc1ccc(C(=O)C(c2ccc(OC)cc2)C2(O)C(=O)Nc3c(C)cc(Cl)cc32)cc1 (stereo unspecified)", "ACHN renal", "µM", ">", 100],
  ["C1CNCCNCCNCCN1", "ACHN renal", "µM", ">", 100],
  ["N#CC1=C(N)OC2=C(COc3ccc(F)cc32)C1c1ccc(Cl)cc1 (stereo unspecified)", "ACHN renal", "µM", "=", 93.5],
  ["NCCCN(CCCN)CCCNCc1c2ccccc2c(CNCCCN(CCCN)CCCN)c2ccccc12", "ACHN renal", "µM", "=", 25.7]
]}
